Target: T1, human IgG1 (human, UniProt P01857-1 1-330 = IgG part)
T1 construct: Calbiochem; human plasma IgG1 in anisotropy studies, myeloma-derived (cat. 400120) in batch/column studies; also called hIgG1
T1 sequence (P01857 other isoform, or with tags, fused parts or gaps): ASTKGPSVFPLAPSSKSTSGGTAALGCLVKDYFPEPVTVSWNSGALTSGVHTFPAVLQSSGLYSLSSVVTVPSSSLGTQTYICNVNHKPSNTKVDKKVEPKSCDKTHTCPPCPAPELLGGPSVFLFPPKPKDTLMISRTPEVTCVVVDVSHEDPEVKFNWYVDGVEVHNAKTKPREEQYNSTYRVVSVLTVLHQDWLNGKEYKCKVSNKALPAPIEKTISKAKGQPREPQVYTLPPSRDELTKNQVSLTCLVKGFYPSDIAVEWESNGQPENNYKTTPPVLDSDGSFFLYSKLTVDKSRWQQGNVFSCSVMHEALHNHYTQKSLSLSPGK
Experiment: fluorescence anisotropy; pH 5.7, 0.01 M Tris-acetate
Positions of bridges follow the written chain, without caps; N, C: chain ends.
# pKd annotations
Reminder that pKd is minus the log10 of a molar concentration.

binder	pKd
Ac-AGYYWCNYWGLCPDQGTPGPEGGGK-NH2 (not fully specified (bridges); printed as Ac-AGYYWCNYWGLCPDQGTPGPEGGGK-NH2; cysteine pairing not given here; also: fluorescein-labelled form in anisotropy assays, place not given here, Fluorescein-labelled in anisotropy assays; immobilised in batch assays) [DX254]	7.05
Ac-GDDDHCYWFREWFNSECPHGEPGPEGGGK-NH2 (not fully specified (bridges); printed as Ac-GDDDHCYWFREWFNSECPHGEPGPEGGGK-NH2; cysteine pairing not given here; also: fluorescein-labelled form in anisotropy assays, place not given here, Fluorescein-labelled in anisotropy assays; immobilised in batch/column assays) [DX252]	7.00

Query: Quick one: pKd for Ac-GDDHMCVYTTWGELIWCDNHEPGPEGGGK-NH2 (disulfide 6-17 (inferred), Synthetic disulfide-cyclised peptide) [DX249] ?
Reply: 7.13
